test.target: T1, Rb^P R763T (human, UniProt P06400 380-788, R763T)
T1 construct: also called variant 75
T1 sequence (looked up): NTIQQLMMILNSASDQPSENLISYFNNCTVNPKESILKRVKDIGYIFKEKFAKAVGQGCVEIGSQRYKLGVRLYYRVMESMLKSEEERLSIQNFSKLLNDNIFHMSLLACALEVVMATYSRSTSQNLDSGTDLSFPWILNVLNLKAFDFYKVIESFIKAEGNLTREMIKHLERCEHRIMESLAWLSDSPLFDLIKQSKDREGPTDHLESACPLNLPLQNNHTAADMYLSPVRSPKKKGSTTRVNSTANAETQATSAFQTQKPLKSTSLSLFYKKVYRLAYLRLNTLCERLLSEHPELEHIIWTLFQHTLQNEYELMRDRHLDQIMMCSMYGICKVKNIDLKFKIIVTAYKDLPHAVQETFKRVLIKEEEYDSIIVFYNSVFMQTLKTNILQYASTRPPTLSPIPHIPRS
assay.info: fluorescence polarisation; 37 °C, after the 25 °C reading ramped over 7 min to 37 °C and 2 min incubation; unlabeled Rb^P against 1.5 nM TMR-E2F1^TD or 7.5 nM TMR-E7^LxCxE; 25 mM Tris pH 8.0, 200 mM NaCl, 1 mM DTT, 0.1% Tween-20; apparent Kd
test.parameters: both partners purified
No end group written: not given here. TMR = tetramethyl rhodamine dye
Below is a list of entries, each paired with its recorded Kd value.
The response must be a number in nM with no trailing unit.

binder	value.kind	number
DLYCYEQLN (also: TMR label, position not given here, source: synthetic peptide, bought: GenScript) [TMR-E7^LxCxE, LxCxE peptide of the E7 oncoprotein from HPV]	Kd	35

Next item in the queue.
Value of Kd reported for the binder {TMR}-GEGIRDLFDCDFGDLTPLD (also called E2F^TD; source: synthetic peptide, bought: GenScript) [TMR-E2F1^TD, peptide of the E2F1 transactivation domain] is 59
